Target: HLA-B*07:02 (Homo sapiens)
Assay: MHC binding assay, UV-ligand exchange with β2m ELISA, HLA-B*07:02
Settings: binding to HLA-B*07:02, UV-ligand exchange
parameter measured: Peptide exchange (MHC class I binding score, peptide exchange yield)

Answered examples (5):
[
  {
    "substance": "79 (SPVPSHWMVA; listed as Homo sapiens) [compound 79]",
    "result": "“+++” (>50 = +++)"
  },
  {
    "substance": "77 (RPNGNSLFTSA; listed as Homo sapiens) [compound 77]",
    "result": "“+++” (>50 = +++)"
  },
  {
    "substance": "239 (APSKTSLIM; listed as Homo sapiens) [compound 239]",
    "result": "“++” (>20% = ++)"
  },
  {
    "substance": "102 (LPLSMEAKI; listed as Homo sapiens) [compound 102]",
    "result": "“++” (>20% = ++)"
  },
  {
    "substance": "253 (RPFADLLGTAF; listed as Homo sapiens) [compound 253]",
    "result": "“+++” (>50 = +++)"
  }
]

Recorded Peptide exchange (MHC class I binding score, peptide exchange yield) for 94 (KPKAAKPKKAAA; listed as Homo sapiens) [compound 94] with HLA-B*07:02 (Homo sapiens), please?
“++” (>20% = ++)

# repeat for 234 (SPKESENAL; listed as Homo sapiens) [compound 234]
“++” (>20% = ++)

Another substance: 254 (SPRNLQPQRAAL; listed as Homo sapiens) [compound 254]
“+++” (>50 = +++)

Repeat with 248 (LPYDSKHQI; listed as Homo sapiens) [compound 248]
“++” (>20% = ++)

Another substance: 95 (KPKAAKPKTA; listed as Homo sapiens) [compound 95]
“++” (>20% = ++)

// same read-out, input: 252 (RPHIPISKL; listed as Homo sapiens) [compound 252]
“++” (>20% = ++)

Next substance up: 241 (APAPAEKTPV; listed as Homo sapiens) [compound 241]
“+++” (>50 = +++)

* * *

Biological target: HLA-B*44:02 (Homo sapiens, UniProt P01889, A223V/A65T/A93T/A95T/D201E/D98Y/E176V/E187L/E204Q/E69K/G107R/H137Y/K202T/L105A/L119I/N104T/N87E/Q56L/Q94N/R106L/R155S/R180D/S101N/S121R/S35A/S48T/T118I/V36M/W191S/Y140D/Y91S)
Experiment: MHC binding assay, UV-ligand exchange with β2m ELISA, HLA-B*44:02
Conditions: binding to HLA-B*44:02, UV-ligand exchange
parameter measured: Peptide exchange (MHC class I binding score, peptide exchange yield)

Would you please look over these solved cases?
[
  {
    "substance": "137 (GELGGSVTI; listed as Homo sapiens) [compound 137]",
    "result": "“+++” (>50 = +++)"
  },
  {
    "substance": "257 (KEFFFVKVF; listed as Homo sapiens) [compound 257]",
    "result": "“+++” (>50 = +++)"
  },
  {
    "substance": "173 (KEYDFGTQL; listed as Homo sapiens) [compound 173]",
    "result": "“++” (>20% = ++)"
  },
  {
    "substance": "140 (EYDLKWEF; listed as Homo sapiens) [compound 140]",
    "result": "“++” (>20% = ++)"
  },
  {
    "substance": "171 (SEDLAVHLY; listed as Homo sapiens) [compound 171]",
    "result": "“++” (>20% = ++)"
  }
]

// returns reported Peptide exchange (MHC class I binding score, peptide exchange yield) for input 154 (AEPGPVITW; listed as Homo sapiens) [compound 154]
“+++” (>50 = +++)

And what about the substance 165 (VELDLQRSV; listed as Homo sapiens) [compound 165] ?
“++” (>20% = ++)

Try this substance next: 178 (REYEHYWTEL; listed as Homo sapiens) [compound 178]
“+++” (>50 = +++)

Now the same for 269 (KELEDLNKW; listed as Homo sapiens) [compound 269]
“+++” (>50 = +++)

What do you have for 274 (GEAVTDHPDRLW; listed as Homo sapiens) [compound 274] ?
“+++” (>50 = +++)

# repeat for 164 (SEYSHLTRV; listed as Homo sapiens) [compound 164]
“++” (>20% = ++)

Subsequent entry: 181 (GEIKEPLEI; listed as Homo sapiens) [compound 181]
“++” (>20% = ++)

And then 147 (KEVPRSYEL; listed as Homo sapiens) [compound 147] , what is it?
“++” (>20% = ++)
